EXPERIMENT_DESCRIPTION: oral bioavailability in rats (AUC versus intravenous)
REPORTED_CONDITIONS: rat, in vivo, po, 50 mg/kg, rats, 50 mg/kg oral, 10% Brij35/Mineral oil
OBSERVABLE: AUC

QUERY: # return recorded AUC for input Nc1ccc2c(c1)[n+]([O-])c1ccccc1[n+]2[O-] [2-aminophenazine-5,10-dioxide]
RESULT: 2380 ng·h/mL

====

EXPERIMENT_DESCRIPTION: oral bioavailability in rats (AUC versus intravenous)
REPORTED_CONDITIONS: rat, in vivo, po, 50 mg/kg, rats, 50 mg/kg oral, 10% Brij35/water
Experimental: The bioavailibility of orally delivered substituted phenazine-5,10-dioxideswas measured because oral delivery also can comprise systemic administration. The bioavailibility was assessed for the phenazine-5,10-dioxide derivative, 2-aminophenazine-5,10-dioxide administered by oral gavage to rats. Vehicles and dose levels are detailed in Table 9. […]
OBSERVABLE: AUC (ng·h/mL)
A number alone suffices; assume ng·h/mL.

QUERY: # return recorded AUC for input Nc1ccc2c(c1)[n+]([O-])c1ccccc1[n+]2[O-] [2-aminophenazine-5,10-dioxide]
RESULT: 1250

====

EXPERIMENT_DESCRIPTION: oral bioavailability in rats (AUC versus intravenous)
REPORTED_CONDITIONS: rat, in vivo, po, 100 mg/kg, rats, 100 mg/kg oral, Arlacel 83; compared to 10 mg/kg IV; read-out: F (Bioavailability)
OBSERVABLE: bioavailability (%)
A number alone suffices; assume %.

QUERY: # return recorded bioavailability for input Nc1ccc2c(c1)[n+]([O-])c1ccccc1[n+]2[O-] [2-aminophenazine-5,10-dioxide]
RESULT: 67

====

EXPERIMENT_DESCRIPTION: oral bioavailability in rats (AUC versus intravenous)
REPORTED_CONDITIONS: rat, in vivo, po, 100 mg/kg, Rats, 100 mg/kg PO, 2% Brij 35 (Table 8 footnote 4); read-out: F
OBSERVABLE: bioavailability

QUERY: # return recorded bioavailability for input Cc1ccc2c(c1)[n+]([O-])c1ccccc1[n+]2[O-] [2-methylphenazine-5,10-dioxide]
RESULT: ~100%

====

EXPERIMENT_DESCRIPTION: oral bioavailability in rats (AUC versus intravenous)
REPORTED_CONDITIONS: rat, in vivo, po, 100 mg/kg, Rats, 100 mg/kg PO, Encapsin CD (Table 8 footnote 2); read-out: F
OBSERVABLE: bioavailability

QUERY: # return recorded bioavailability for input Cc1ccc2c(c1)[n+]([O-])c1ccccc1[n+]2[O-] [2-methylphenazine-5,10-dioxide]
RESULT: ~50%

====

EXPERIMENT_DESCRIPTION: oral bioavailability in rats (AUC versus intravenous)
REPORTED_CONDITIONS: rat, in vivo, po, 80 mg/kg, Rats, 80 mg/kg PO, 10% Cremaphor (Table 8 footnote 1); read-out: F
OBSERVABLE: bioavailability

QUERY: # return recorded bioavailability for input Cc1ccc2c(c1)[n+]([O-])c1ccccc1[n+]2[O-] [2-methylphenazine-5,10-dioxide]
RESULT: ~2%

====

EXPERIMENT_DESCRIPTION: oral bioavailability in rats (AUC versus intravenous)
REPORTED_CONDITIONS: rat, in vivo, iv, 10 mg/kg, rats, 10 mg/kg IV administration
OBSERVABLE: AUC (ng·h/mL)
A number alone suffices; assume ng·h/mL.

QUERY: # return recorded AUC for input Nc1ccc2c(c1)[n+]([O-])c1ccccc1[n+]2[O-] [2-aminophenazine-5,10-dioxide]
RESULT: 390
